Quick reference: IC50 of the listed items.
- Test System: Bromodomain-containing protein 4 (Homo sapiens, UniProt O60885)
- Procedure Summary: Inhibition of recombinant human His-tagged BRD4 BD1 using biotin-labelled histone H4 acetylated peptide as substrate by TR-FRET assay

- Molecule: "CNC(=O)N1N=C(c2ccc(N3CCN(C(=O)CCOCCOCCOCCNc4ccc5c(c4)C(=O)N(C4CCC(=O)NC4=O)C5=O)CC3)cc2)c2cc(OC)c(OC)cc2C[C@@H]1C (some centres undefined)"
  IC50 (nM): 19.3
- Molecule: "CNC(=O)N1N=C(c2ccc(N3CCN(C(=O)COCCOCCOCCOCC(=O)Nc4cccc5c4C(=O)N(C4CCC(=O)NC4=O)C5=O)CC3)cc2)c2cc(OC)c(OC)cc2C[C@@H]1C (some centres undefined)"
  IC50 (nM): 18.6
- Molecule: "CNC(=O)N1N=C(c2ccc(C(=O)NCCCCNC(=O)COc3cccc4c3C(=O)N(C3CCC(=O)NC3=O)C4=O)cc2)c2cc(OC)c(OC)cc2C[C@@H]1C (some centres undefined)"
  IC50 (nM): 24.9
- Molecule: "CNC(=O)N1N=C(c2ccc(N3CCN(C(=O)COCCOCCOCC(=O)Nc4cccc5c4C(=O)N(C4CCC(=O)NC4=O)C5=O)CC3)cc2)c2cc(OC)c(OC)cc2C[C@@H]1C (some centres undefined)"
  IC50 (nM): 14.9

----------
- Test System: Bromodomain-containing protein 4 (Homo sapiens, UniProt O60885)
- Procedure Summary: Inhibition of recombinant human His-tagged BRD4 BD2 using biotin-labelled histone H4 acetylated peptide as substrate by TR-FRET assay
Recorded IC50, one value per entry.
Attribute Measured: IC50 (nM)

- Molecule: "CNC(=O)N1N=C(c2ccc(C(=O)NCCCCNC(=O)COc3cccc4c3C(=O)N(C3CCC(=O)NC3=O)C4=O)cc2)c2cc(OC)c(OC)cc2C[C@@H]1C (some centres undefined)"
  Test System: "Bromodomain-containing protein 4 (Homo sapiens, UniProt O60885)"
  Endpoint Result: 136
- Molecule: "CNC(=O)N1N=C(c2ccc(N3CCN(C(=O)COCCOCCOCC(=O)Nc4cccc5c4C(=O)N(C4CCC(=O)NC4=O)C5=O)CC3)cc2)c2cc(OC)c(OC)cc2C[C@@H]1C (some centres undefined)"
  Test System: "Bromodomain-containing protein 4 (Homo sapiens, UniProt O60885)"
  Endpoint Result: 150
- Molecule: "CNC(=O)N1N=C(c2ccc(N3CCN(C(=O)COCCOCCOCCOCC(=O)Nc4cccc5c4C(=O)N(C4CCC(=O)NC4=O)C5=O)CC3)cc2)c2cc(OC)c(OC)cc2C[C@@H]1C (some centres undefined)"
  Test System: "Bromodomain-containing protein 4 (Homo sapiens, UniProt O60885)"
  Endpoint Result: 78.4
- Molecule: "CNC(=O)N1N=C(c2ccc(N3CCN(C(=O)CCOCCOCCOCCNc4ccc5c(c4)C(=O)N(C4CCC(=O)NC4=O)C5=O)CC3)cc2)c2cc(OC)c(OC)cc2C[C@@H]1C (some centres undefined)"
  Test System: "Bromodomain-containing protein 4 (Homo sapiens, UniProt O60885)"
  Endpoint Result: 166
